- assay-info: Bidirectional permeability (Papp A-B, B-A)
- Format: in vitro ADME
- stated-conditions: not told; B-A direction
measurement-name: Papp B→A (×10⁻⁶ cm/s)
Field: numeric (×10⁻⁶ cm/s). Do not append units.

[in] Name the recorded Papp B→A for Cc1sc2c(c1C)C(c1ccc(Cl)cc1)=N[C@@H](CC(=O)NCCNC(=O)c1ccc(SCCC#CC(C3CCOCC3)N3CCC(NC(=O)COc4cccc5c4C(=O)N(C4CCC(=O)NC4=O)C5=O)CC3)cc1)c1nnc(C)n1-2 (some centres unmarked) [Compound 7a] .
[out] 0.01

====

- System: P-gp
- assay-info: Bidirectional permeability (Papp A-B, B-A)
- Assay type: in vitro ADME
- stated-conditions: not told
measurement-name: efflux ratio
Reply: number alone, nothing else.

[in] Which efflux ratio reading was recorded for the compound Cc1sc2c(c1C)C(c1ccc(Cl)cc1)=N[C@@H](CC(=O)NCCNC(=O)c1ccc(SCCC#CC(C3CCOCC3)N3CCC(NC(=O)COc4cccc5c4C(=O)N(C4CCC(=O)NC4=O)C5=O)CC3)cc1)c1nnc(C)n1-2 (stereo partly shown) ?
[out] 1.4
